Target: proteasome Chymotrypsin-like (CT-L) activity (Mus musculus, UniProt O09061+O55234)
Construct: RBCs were lysed with assay lysis buffer and incubated on ice for 30 minutes; from tissue; host or cells: red blood cells of NOD/SCID mice
Assay: Pharmacodynamic proteasome activity in murine red blood cells, CT-L
Assay type: in vivo, NOD/SCID mice
Conditions: iv, mice, 2 mg/kg i.v., 30 min, read-out: Chymotrypsin-like (CT-L) mean residual activity relative to vehicle treated controls
Please use criterion met for remaining activity at 2 mg/kg under 30% and criterion not met for everything else, ties included.

Ask: Hello, I'm reviewing records and need to know if remaining activity at 2 mg/kg of CC(C)C[C@H](NC(=O)[C@H](COC(F)F)NC(=O)[C@H](COC(F)F)NC(=O)[C@H](COC(F)F)NC(=O)CN1CCOCC1)C(=O)[C@@]1(C)CO1 is below 30%. Could you check?
Reply: criterion met

Ask: Hello, I'm reviewing records and need to know if remaining activity at 2 mg/kg of CC(C)C[C@H](NC(=O)[C@H](COC(F)F)NC(=O)CN1CCOCC1)C(=O)N[C@@H](COC(F)F)C(=O)N[C@@H](Cc1ccccc1)C(=O)[C@@]1(C)CO1 is below 30%. Could you check?
Reply: criterion not met

Ask: Hello, I'm reviewing records and need to know if remaining activity at 2 mg/kg of CC(C)C[C@H](NC(=O)[C@H](COC(F)F)NC(=O)[C@H](COC(F)F)NC(=O)[C@H](CCc1ccccc1)NC(=O)CN1CCOCC1)C(=O)[C@@]1(C)CO1 is below 30%. Could you check?
Reply: criterion not met

Ask: Hello, I'm reviewing records and need to know if remaining activity at 2 mg/kg of CC(C)C[C@H](NC(=O)[C@H](CCc1ccccc1)NC(=O)CN1CCOCC1)C(=O)N[C@@H](Cc1ccccc1)C(=O)N[C@@H](CC(C)C)C(=O)[C@@]1(C)CO1 [Carfilzomib, carfilzomib, reference compound] is below 30%. Could you check?
Reply: criterion not met

Ask: Hello, I'm reviewing records and need to know if remaining activity at 2 mg/kg of CC(C)C[C@H](NC(=O)[C@H](COC(F)F)NC(=O)CN1CCOCC1)C(=O)N[C@@H](Cc1ccccc1)C(=O)N[C@@H](CC(C)C)C(=O)[C@@]1(C)CO1 is below 30%. Could you check?
Reply: criterion met

Ask: Hello, I'm reviewing records and need to know if remaining activity at 2 mg/kg of CC(C)C[C@H](NC(=O)[C@H](COC(F)F)NC(=O)CN1CCOCC1)C(=O)N[C@@H](COC(F)F)C(=O)N[C@@H](CC(C)C)C(=O)[C@@]1(C)CO1 is below 30%. Could you check?
Reply: criterion met

Ask: Hello, I'm reviewing records and need to know if remaining activity at 2 mg/kg of CC(C)C[C@H](NC(=O)[C@H](COC(F)F)NC(=O)CN1CCOCC1)C(=O)N[C@@H](Cc1ccccc1)C(=O)N[C@@H](Cc1ccccc1)C(=O)[C@@]1(C)CO1 is below 30%. Could you check?
Reply: criterion met

###

Test system: HCT-116
Assay: NCI screening panel, HCT-116 (Colon Cancer)
Assay type: cell-based, human
Property: Log10LC50
Kindly provide the number alone.

So for CC(C)C[C@H](NC(=O)[C@H](COC(F)F)NC(=O)CN1CCOCC1)C(=O)N[C@@H](COC(F)F)C(=O)N[C@@H](CC(C)C)C(=O)[C@@]1(C)CO1 , the logged Log10LC50 turned out to be −6.33

So for CC(C)C[C@H](NC(=O)[C@H](Cc1ccccc1)NC(=O)[C@H](COC(F)F)NC(=O)[C@H](COC(F)F)NC(=O)CN1CCOCC1)C(=O)[C@@]1(C)CO1 , the logged Log10LC50 turned out to be −4.54
